# Subject Of Test: mouse Nectin-4 (Mus musculus)
# Sequence (Q8R007 31-508): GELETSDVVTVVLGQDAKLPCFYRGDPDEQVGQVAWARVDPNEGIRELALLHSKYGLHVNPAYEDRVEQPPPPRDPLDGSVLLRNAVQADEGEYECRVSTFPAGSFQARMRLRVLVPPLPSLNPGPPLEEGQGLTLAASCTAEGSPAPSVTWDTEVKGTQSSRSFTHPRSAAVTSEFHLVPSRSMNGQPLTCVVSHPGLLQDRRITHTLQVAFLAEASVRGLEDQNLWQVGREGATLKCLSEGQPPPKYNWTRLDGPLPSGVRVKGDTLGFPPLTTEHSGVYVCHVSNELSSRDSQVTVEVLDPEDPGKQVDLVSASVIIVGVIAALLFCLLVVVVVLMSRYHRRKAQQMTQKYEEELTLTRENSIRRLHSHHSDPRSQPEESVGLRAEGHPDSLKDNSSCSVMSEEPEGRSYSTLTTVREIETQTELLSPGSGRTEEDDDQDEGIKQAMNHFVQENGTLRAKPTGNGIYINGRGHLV
# Experimental Protocol: Surface plasmon resonance (Biacore), 1:1 binding model, mouse Nectin-4
# Cond: SPR, 25° C.
Bridges are numbered along the chain shown (N, C = ends).
Result Type: Kd (nM)
Write the answer as a number in nM, unit excluded.

Missing value: Kd, mouse Nectin-4 (Mus musculus), entry Ac-CEYDEEFFAGLKRLRGGDICYYIKKKFDKVPDLCIEEILDKLGC-OH (disulfide 1-34, 20-44) [Compound C9] . Fill in?
7.82

====

# Experimental Protocol: In vitro metabolic stability in serum/plasma (percent parent remaining, LC-MS)
# Type: in vitro ADME
# Cond: mouse
# Description: Exemplary miniproteins were spiked into biological matrices at initial concentration between 1-2 μM. Tested matrices were varied by species (mouse, rat, human) and type (plasma, serum, and kidney brush border membrane (kBBM) preparations tested each from 0.625-100 μg/mL protein content). Tested conditions were incubated with miniproteins at 37° C. for 4 h. […] Percent-parent-remaining in mouse serum and plasma for exemplary miniproteins are recorded in TABLE 11.
Bridges are numbered along the chain shown (N, C = ends). [ ]: non-standard residue; d: D form. The star is where a group is joined. DOTA = O=C(O)CN1CCN(CC(=O)O)CCN(CC(=O)*)CCN(CC(=O)O)CC1; Arg(Me2s) = CN=C(NC)NCCC[C@H](N)C(=O)O; PEG4 = NCCOCCOCCOCCOCCC(=O)O
Result Type: half-life

Tell me the measured half-life of {DOTA-PEG4}-CEYDEQFFTALARLRGGDICEYIQA[Arg(Me2s)]FQYLPGLCIEEILDNLGCS-OH (disulfide 1-34, 20-44 (inferred)) [Compound C268] , please.
> 12 h

Name the reported half-life value associated with the substance {DOTA-PEG4}-CEYDEQFFTALARLRGGDICEYIQARFQYLPGLCIEEILDNLGCS-OH (disulfide 1-34, 20-44 (inferred)) [Compound C265]
> 12 h

For {DOTA-PEG4}-CEYDEQFFTALKRLRGADICSYIQASFQYLPGLCIEEILDNLGCS-OH (disulfide 1-34, 20-44) [Compound C250] , what is its reported half-life?
> 12 h

====

Examples of substances with documented Kd follow.
# Subject Of Test: Nectin-4 (Homo sapiens)
# Sequence (Q96NY8 32-510): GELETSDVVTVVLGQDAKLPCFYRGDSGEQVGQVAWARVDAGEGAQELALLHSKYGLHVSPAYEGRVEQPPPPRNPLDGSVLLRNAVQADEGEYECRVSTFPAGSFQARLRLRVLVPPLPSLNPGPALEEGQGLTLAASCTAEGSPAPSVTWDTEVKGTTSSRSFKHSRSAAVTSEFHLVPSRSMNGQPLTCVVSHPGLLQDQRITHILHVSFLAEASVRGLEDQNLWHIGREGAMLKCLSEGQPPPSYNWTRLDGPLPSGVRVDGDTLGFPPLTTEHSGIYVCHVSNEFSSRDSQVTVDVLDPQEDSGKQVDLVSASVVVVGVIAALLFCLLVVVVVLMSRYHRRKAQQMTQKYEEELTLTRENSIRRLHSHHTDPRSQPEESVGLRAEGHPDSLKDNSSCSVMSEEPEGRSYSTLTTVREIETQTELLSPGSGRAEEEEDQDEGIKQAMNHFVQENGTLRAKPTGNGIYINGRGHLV
# Experimental Protocol: DELFIA whole cell binding assay, equilibrium binding affinity (KD), Table 2B
Bridges are numbered along the chain shown (N, C = ends). [ ]: non-standard residue; d: D form. The star is where a group is joined. Biotin = O=C1N[C@H]2[C@H](CS[C@H]2CCCCC(=O)*)N1; Lys(Me3) = C[N+](C)(C)CCCC[C@H](N)C(=O)O; Cit = NC(=O)NCCC[C@H](N)C(=O)O; PEG4 = NCCOCCOCCOCCOCCC(=O)O
Please append the unit to your numeric answer.

A selection of reference data follows.
{Biotin-PEG4}-CEYDEEFFTALKRLRGGDICYYIQAKFQYLPKLCIEEILDNLGCS-OH (disulfide 1-34, 20-44) [Compound C119]	0.95 nM
{Biotin-PEG4}-CEYDEEFFTALARLRGGDICQYIQAKFAYVPGLCIEEILDNLGCS-OH (disulfide 1-34, 20-44) [Compound C155]	1.1 nM
{Biotin-PEG4}-CDYDEEFFTALKRLRGDDICSYIQASFQYLPGLCIEEILDNLGCS-OH (disulfide 1-34, 20-44) [Compound C192]	1.3 nM
{Biotin-PEG4}-CEYDEEFFTALKRLRGGDICEYIQA[Lys(Me3)]FQYLPGLCIEEILDNLGCS-OH (disulfide 1-34, 20-44) [Compound C201]	0.68 nM
{Biotin-PEG4}-CEYDEQFFTALKRLRGGDICDYIQASFQYLPGLCIEEILDNLGCS-OH (disulfide 1-34, 20-44) [Compound C196]	1.6 nM

Given {Biotin-PEG4}-CEYDEEFFTALKRLRGGDICYYIQASFQYLPGECIEEILDNLGCS-OH (disulfide 1-34, 20-44) [Compound C177] , state its recorded Kd.
2 nM

For {Biotin-PEG4}-CEYDEEFFTALARLRGGDICYYIQAYFQYLPGLCIEEILDNLGCS-OH (disulfide 1-34, 20-44) [Compound C165] , what is its reported Kd?
4.1 nM

Quick one: Kd for {Biotin-PEG4}-CDYDEEFFTALKRLRGGDICEYIQASFQYLPGLCIEEILDNLGCS-OH (disulfide 1-34, 20-44) [Compound C188] ?
1.6 nM

Entry under review: {Biotin-PEG4}-CEYDEEFFTALA[Cit]LRGDDICSYIQAKFQYLPGLCIEEILDNLGCS-OH (disulfide 1-34, 20-44) [Compound C172] . Reported Kd?
1.8 nM

Given the substance {Biotin-PEG4}-CDYDEEFFTALA[Cit]LRGGDICEYIQAKFQYLPGLCIEEILDNLGCS-OH (disulfide 1-34, 20-44) [Compound C176] , what is its reported Kd?
1.3 nM

Can you look up the measured Kd of {Biotin-PEG4}-CEYDEEFFTALKRLRGDDICEYIQASFQYLPGLCIEEILDNLGCS-OH (disulfide 1-34, 20-44) [Compound C181] for me?
3 nM

# lookup: Kd of {Biotin-PEG4}-CEYDEEFFTALARLRGGDICEYIQAKFQYLPKLCIEEILDNLGCS-OH (disulfide 1-34, 20-44) [Compound C167]
1.2 nM

# get_value(readout='Kd', item= {Biotin-PEG4}-CEYDEQFFTALARLRGGDICEYIQAKFQYLPGLCIEEILDNLGCS-OH (disulfide 1-34, 20-44) [Compound C146] )
0.54 nM

Quick one: Kd for {Biotin-PEG4}-CEYDEEFFTALKRLRGGDICEYIQASFQYLPGLCIEEILDNLGCS-OH (disulfide 1-34, 20-44) [Compound C178] ?
1.4 nM

====

# Experimental Protocol: In vivo biodistribution of 111In-labeled miniproteins by SPECT/CT, HT-1376 xenograft
# Design: species or system mouse
# Cond: female, athymic nude, mouse, in vivo
Bridges are numbered along the chain shown (N, C = ends). The star is where a group is joined. DOTA = O=C(O)CN1CCN(CC(=O)O)CCN(CC(=O)*)CCN(CC(=O)O)CC1; PEG4 = NCCOCCOCCOCCOCCC(=O)O
Some substances, each annotated with its measured tissue uptake at 4 h.
Kindly provide the numeric value in %ID/g only, without the unit symbol.

Field: example entries. Status: answers known.
{DOTA-PEG4}-CEYDEEFFTALARLRGDDICSYIQAKFQYLPGLCIEEILDNLGCS-OH (disulfide 1-34, 20-44 (inferred)) [Compound C293]	55.8
{DOTA-PEG4}-CEYDEEFFTALSRLRGGDICYYIQQAFQYLPGLCIEEILDNLGCS-OH (disulfide 1-34, 20-44) [Compound C133]	43.8

Now look at this one.
tissue uptake at 4 h lookup needed for {DOTA-PEG4}-CEYDEQFFTALARLRGGDICYYIQEQFATVPGLCIEEILDQLGCS-OH (disulfide 1-34, 20-44) [Compound C129] , thanks.
43.5

====

Reported pKd values for the following substances.
# Subject Of Test: Nectin-4 (Homo sapiens)
# Experimental Protocol: DELFIA whole cell binding assay, equilibrium binding affinity (KD), Table 2B
Bridges are numbered along the chain shown (N, C = ends). [ ]: non-standard residue; d: D form. The star is where a group is joined. Biotin = O=C1N[C@H]2[C@H](CS[C@H]2CCCCC(=O)*)N1; Cit = NC(=O)NCCC[C@H](N)C(=O)O; PEG4 = NCCOCCOCCOCCOCCC(=O)O
Keep it numeric: pKd is minus log10 of the concentration in mol/L.

What does the data say about its pKd? Entry: {Biotin-PEG4}-CEYDEEFFTALKRLRGDDICYYIQASFQYLPGLCIEEILDNLGCS-OH (disulfide 1-34, 20-44) [Compound C180]
8.57

So what's the measured pKd for this one? {Biotin-PEG4}-CEYDEAFFTALARLRGGDICQYIQAKFQYLPGLCIEEILDNLGCS-OH (disulfide 1-34, 20-44) [Compound C151]
9.17

Any idea what pKd was measured for {Biotin-PEG4}-CEYDEEFFTALA[Cit]LRGGDICSYIQAKFQYLPGLCIEEILDNLGCS-OH (disulfide 1-34, 20-44) [Compound C175] ?
8.64

May I ask what pKd has been recorded for {Biotin-PEG4}-CEYDEEFFTALA[Cit]LRGGDICEYIQAKFQYLPGLCIEEILDNLGCS-OH (disulfide 1-34, 20-44) [Compound C171] ?
8.66

What does the data say about its pKd? Entry: {Biotin-PEG4}-CEYDEQFFTALKRLRGADICDYIQASFQYLPGLCIEEILDNLGCS-OH (disulfide 1-34, 20-44) [Compound C194]
8.96
